inhibition of cAMP production, 1 nM values by entry
STUDY_SYSTEM: human glucagon receptor (human, UniProt P47871 26-477)
TEST_PROTOCOL: cell-based or functional assay
Non-standard residues stand in square brackets, D forms with d. No end group written: not given here. *: point of attachment. 2CF3,4F‑APPA = 2-amino-5-(4-fluoro-2-(trifluoromethyl)phenyl)pentanoic acid; 2CF3‑APPA = 2-amino-5-(2-(trifluoromethyl)phenyl)pentanoic acid; Bip(2'-Et-4'-OMe) = CCc1cc(OC)ccc1-c1ccc(C[C@H](N)C(=O)O)cc1; 2F‑APPA = 2-amino-5-(2-fluorophenyl)pentanoic acid; αMePhe(2-F) = C[C@](N)(Cc1ccccc1F)C(=O)O; hhPhe = N[C@@H](CCCc1ccccc1)C(=O)O; CNB = not defined here; Ac3c = NC1(C(=O)O)CC1; Aib = CC(C)(N)C(=O)O; Moc = COC(=O)*
// return numeric value only (unit: pmol/ml/µg prt, not printed)

The following binders have reported results that may help.
# BINDER, REPORTED_METRIC, MEASURED_RESULT
measured = [
    ("H[Aib][CNB]GTFTSD[Bip(2'-Et-4'-OMe)][2CF3‑APPA] (reading uncertain) [Seq. ID. No. 79: H-Aib-(CNB)-GTFTSD-Bip(OMe)-(2CF3-APPA)]", "inhibition of cAMP production, 1 nM", 6),
    ("Ac-H[Aib][CNB]GT[αMePhe(2-F)]TSD[Bip(2'-Et-4'-OMe)][hhPhe] (reading uncertain) [Seq. ID. No. 205: CH3CO-H-Aib-(CNB)-GT-(α-Me-2F-Phe)-TSD-Bip(OMe)-(APPA)]", "inhibition of cAMP production, 1 nM", 4),
    ("Moc-H[Aib]QGT[αMePhe(2-F)]TSD[Bip(2'-Et-4'-OMe)][hhPhe] (also: thioamide bonds between residues 9-10 and 10-11) [Seq. ID. No. 170: CH3OCO-H-Aib-QGT-(α-Me-2F-Phe)-TSD-(C═S)-Bip(OMe)-(C═S)-(APPA)]", "inhibition of cAMP production, 1 nM", 6),
    ("H[Ac3c]QGTFTSD[Bip(2'-Et-4'-OMe)][2CF3,4F‑APPA] [Seq. ID. No. 72: H-(ACP)-QGTFTSD-Bip(OMe)-(2CF3,4F-APPA)]", "inhibition of cAMP production, 1 nM", 9),
]

Shifting focus to the binder that follows.
Lab book: inhibition of cAMP production, 1 nM of Moc-H[Aib]QGT[αMePhe(2-F)]TSD[Bip(2'-Et-4'-OMe)][2F‑APPA] (also: thioamide bonds between residues 9-10 and 10-11) [Seq. ID. No. 172: CH3OCO-H-Aib-QGT-(α-Me-2F-Phe)-TSD-(C═S)-Bip(OMe)-(C═S)-(2F-APPA)] noted as 4
